- PROTOCOL_NOTES: yeast display, Sf9 membrane polyspecificity reagent, FACS + sequencing; frameworks hold sequencing errors
RESULT_TYPE: polyreactivity (PSR sort gate)

Here are 4 sequences together with their reported answers.
CONSTRUCT_SEQUENCE	polyreactivity (PSR sort gate)
QVQLVESGGGLVQAGGSLRLTCAASGRIFVYNAMGWYRQAPGKESEFVATITSSGGRTYYADSVKGRFTISRDNAKNTVYLQMNSLKTEDTAVYDCAASPHNYGRNTVYRYKYWGQGTQVTVSS	high polyreactivity
QVQLVESGGGLVQAGGSLRLSCAASGRILTTNAMGLYRQETGKERELVAAITRSGGRTYYADSVKGRFTISRDNAKNTVYLQMNSLKPEDTAVYYCNAVTTRLALYDYWGQGTQVTVSS	high polyreactivity
QVQLVESAGGLVQAGGSLSLSCAASGRTFVIYAMGWYRKAPGKERELVAGIDSGTSTYADSVKGRFTISRDNAKNTVYLQMNSLKPEDTAVYYCAADFAPDGAGWYIPGDYDSWGQGTQVTVSS	low polyreactivity
QVQLVESGGGLVQAGGSLRLSCAASGRIFTGYAMGWYRQAPGKEREVVAAISRGGSTNYADSVKGRFTISRDNAKNTVYLQMNSLKPEDTAVYYCAAGVHWDRGDYWGQGTQVNVSS	low polyreactivity

Query: What value of measured polyreactivity (PSR sort gate) is listed for QVQLVESGGGLVQAGRSLRLSCAASGSTLLWNAMGWYRQAPGKERELVAVISWSGGSTYYGDSVKGRFTISRDNAKNTVYLQMNSLKPEDTAVYYCAHDYDGYVWDTEYDYWGQGTQVTVSS ?
Result: low polyreactivity

Query: Another sequence: QVQLVESGGGLVQAGGSLRLSCAASGLIFPYYTMGWYRQAPGKEGELVAVINRGGSTSYADSVKGRFTISRDNAKNTFYLQMNSLKPEDTAVYYCAARKWRYYSHVIYDYWGQGTQVTVSS
Result: high polyreactivity

Query: Okay, and QVQLVESGGGLVQAGGSLRLSCAASGSTFSAYTMGWYRQAPGKERELVARITNGGSTYYADSVKGRFTISRDNAKNTVYLQMNSLKPEDTAVYYCNVQYYVSYWRSYDYWGQGTQVTVSS ?
Result: high polyreactivity

Query: Next sequence up: QVQLVESGGCLVQAGGSLRLSCAASGSTFTYNAMGGYRQAPGKERELVAGISWRGGRTYYADSVKGRFTISRDTAKNTVYLQMNSLKPEDTAVYYCNARLWGTHYEYARMYYWGQGTQVTVSS
Result: low polyreactivity

Query: Cool, now QVQLVESGGGLVHAGGSLRLSCAASGYTFQAYAMGWYRQPPGKERELVAAISFSSGSTYYADSVKGRFTISRDNAKNTVYLQMNSLKPEDTAVYDCATDNWSVNGGYNYWGQGTQVTVSS
Result: low polyreactivity

Query: // repeat for QVQLVESGGGLVQAGASLRLSCAASGSTFYYNAMGWYRQAPGKERELVAAISKSSSRTYYADSVKGRFTISRDNAKNTVFLQMNSLKPEDTAGYYCAADAVYYHFDYWGQGTQVTVSS and report
Result: high polyreactivity

Query: Do the same for QVQLVESGGGLVQAGCSLRLSCAASGIIFAWYAMGWYRQAPGKERELVAGISQSGGRTYYADSVKGRFTISRDNAKNTVYLQMNSLKPEDTAVYYCAAERPYSRVGYYYWGQGTQVTVSS please
Result: high polyreactivity
